# ASSAY_PROTOCOL: protein stability index of a GFP-peptide fusion (GPS, HEK-293T) (PSI 1-6); higher = more stable;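 also: 24-mer peptide tiles fused after GFP, lentivirally expressed, FACS-sorted into six equal bins by GFP/DsRed ratio, decoded by Illumina sequencing, PSI is the read-weighted mean bin number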
# MEASUREMENT_CONTEXT: treatment: MLN4924 1 uM, 8 h; c terminus: native
READOUT_KIND: protein stability index
Form field (numeric): enter value without unit.

In the examples that follow, each entry is paired with its recorded protein stability index.
Which protein stability index reading was recorded for the sequence GEVVTESQKEQRSELDKSSAHSY [PRPH] ?
5.77

Which protein stability index reading was recorded for the sequence AIHSSDEGEDQAGDEDEDDEWDD [WAS] ?
5.25

Next:
Which protein stability index reading was recorded for the sequence ASVPKVETVKSDNKDDDIDIDAI [EIF5] ?
5.53

Which protein stability index reading was recorded for the sequence WNDAPCDKTFLFICKRPYVPSEP [CD207] ?
2.13

Which protein stability index reading was recorded for the sequence PDVTQLTPPSHDLTDNIFPRLVC [ANKRD17] ?
2.4

Which protein stability index reading was recorded for the sequence TTDDTTAMASASSSATGSFSYPE [MAGEA10] ?
5.4

Which protein stability index reading was recorded for the sequence CDPSRIYKPQTRLKRKQPVRKRQ [DFFB] ?
4.15
